- assay.notes: Miscibility or solubility of fluorinated molecules in propellants
- test.context: in propellant HFA-227, at the concentration in brackets
parameter.measured: Miscibility or solubility, HFA-227

Please review the following examples before continuing.
[[record]]
compound = "COC(=O)C(F)(F)C(F)(F)C(F)(F)C(F)(F)C(F)(F)C(F)(F)C(F)(F)C(F)(F)C(F)(F)F [Methyl Perfluorodecanoate]"
measured_result = "Yes"

[[record]]
compound = "OCCC(F)(F)C(F)(F)C(F)(F)C(F)(F)C(F)(F)C(F)(F)F [1H,1H,2H,2H Perfluorooctan-1-ol]"
measured_result = "Yes"

[[record]]
compound = "CCOC(=O)C(F)(F)C(F)(F)C(F)(F)C(F)(F)C(F)(F)C(F)(F)C(F)(F)C(F)(F)C(F)(F)C(F)F [Ethyl 11H-Perfluoroundecanoate]"
measured_result = "Yes"

[[record]]
compound = "COC(=O)C(F)(OC(F)(F)C(F)(OC(F)(F)C(F)(OC(F)(F)C(F)(OC(F)(F)C(F)(F)C(F)(F)F)C(F)(F)F)C(F)(F)F)C(F)(F)F)C(F)(F)F (stereo not drawn)"
measured_result = "Yes"


Req: Requested read-out: Miscibility or solubility, HFA-227. Entry: FC(OC(F)(F)C(F)(OC(F)(F)C(F)(OC(F)(F)C(F)(OC(F)(F)C(F)(F)C(F)(F)F)C(F)(F)F)C(F)(F)F)C(F)(F)F)C(F)(F)F (stereo not drawn)
Resp: Yes

Req: # iterate: OCC(O)CC(F)(F)C(F)(F)C(F)(F)C(F)(F)C(F)(F)C(F)(F)F (stereo not drawn) [1H,1H,2H,3H,3H Perfluoro-1,2-nonandiol]
Resp: Yes

----------
- assay.notes: Miscibility or solubility of fluorinated molecules in propellants
- test.context: in propellant HFA-227, at the concentration in brackets
parameter.measured: Miscibility or solubility, HFA-227

[[record]]
compound = "CCOC(=O)C(F)(F)C(F)(F)C(F)(F)C(F)(F)C(F)(F)C(F)(F)C(F)(F)C(F)(F)C(F)(F)C(F)(F)C(F)(F)F [Ethyl Perfluoro n-Dodecanoate]"
parameter_measured = "Miscibility or solubility, HFA-227"
measured_result = "Yes"

[[record]]
compound = "O=C(OC(=O)C(F)(F)C(F)(F)C(F)(F)C(F)(F)C(F)(F)C(F)(F)F)C(F)(F)C(F)(F)C(F)(F)C(F)(F)C(F)(F)C(F)(F)F [Perfluoroheptanoic anhydride]"
parameter_measured = "Miscibility or solubility, HFA-227"
measured_result = "Yes"

[[record]]
compound = "OCC(F)(F)C(F)(F)C(F)(F)C(F)(F)C(F)(F)C(F)(F)C(F)(F)C(F)(F)F"
parameter_measured = "Miscibility or solubility, HFA-227"
measured_result = "Yes"


All values here come from patent US20030194378A1.
